meta.source: patent US12331033B2

- subject-of-test: SARM1 (ARM-SAM-TIR) (Homo sapiens (Human))
- Sequence (Q6SZW1 other isoform, or with tags, fused parts or gaps): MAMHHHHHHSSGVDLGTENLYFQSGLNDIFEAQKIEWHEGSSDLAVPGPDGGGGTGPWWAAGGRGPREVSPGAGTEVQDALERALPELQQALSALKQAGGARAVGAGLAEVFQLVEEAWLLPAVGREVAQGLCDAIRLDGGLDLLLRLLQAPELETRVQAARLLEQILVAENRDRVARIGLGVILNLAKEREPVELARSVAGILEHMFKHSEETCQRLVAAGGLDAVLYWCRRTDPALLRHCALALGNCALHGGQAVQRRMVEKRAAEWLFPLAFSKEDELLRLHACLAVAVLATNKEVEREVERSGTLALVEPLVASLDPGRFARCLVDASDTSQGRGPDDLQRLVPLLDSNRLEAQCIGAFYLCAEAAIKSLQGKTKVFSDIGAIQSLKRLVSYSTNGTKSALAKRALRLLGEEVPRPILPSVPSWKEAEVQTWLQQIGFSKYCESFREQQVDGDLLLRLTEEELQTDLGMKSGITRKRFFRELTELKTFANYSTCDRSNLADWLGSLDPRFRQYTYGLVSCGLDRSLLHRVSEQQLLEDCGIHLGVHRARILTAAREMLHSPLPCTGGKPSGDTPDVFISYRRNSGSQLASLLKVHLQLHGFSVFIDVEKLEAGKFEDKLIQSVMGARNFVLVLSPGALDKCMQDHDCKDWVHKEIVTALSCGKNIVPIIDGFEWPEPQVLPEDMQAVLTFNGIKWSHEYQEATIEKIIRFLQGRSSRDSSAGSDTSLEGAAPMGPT
- assay-summary: ARM-SAM-TIR SARM1 IC50 assay (NADase activity, NAD+ cleavage, RapidFire MS)
- condition-parameters: ARM-SAM-TIR lysate 5 μg/mL, 2 h pre-incubation, 5 μM NAD+, 2 hr room temperature
Below: a set of entries, each annotated with reported IC50.
assay-metric: IC50

1) O=C(COc1ccccc1)Nc1nnc(-c2ccncc2)[nH]1: > 30 µM
2) Cc1c(-c2ccncc2)n[nH]c1NC(=O)CSc1ccc(Cl)cc1: < 5 µM
3) O=C(C[C@H]1CCOc2ccccc21)Nc1nnc(-c2ccncc2)[nH]1: < 5 µM
4) O=C(CCc1ccc(Cl)cc1)Nc1nnc(-c2ccncc2)[nH]1: < 5 µM
5) O=C(CCc1ccc(Cl)cc1)Nc1nnc(-c2ccncc2)o1: > 30 µM
6) O=C(CCc1ccc(Cl)cc1)Nc1cc(-c2c(F)cncc2F)n[nH]1: < 5 µM
7) Cc1ccc(CCC(=O)Nc2[nH]nc(-c3ccncc3)c2C)cn1: < 5 µM
8) Cc1c(-c2ccncc2)n[nH]c1NC(=O)CCc1ccc(Cl)c(F)c1: < 5 µM
9) COc1cccc(CCC(=O)Nc2nnc(-c3ccncc3)[nH]2)c1: 5 to 15 µM
